// reported Diameter of inhibition zone per item
system: Aspergillus niger; assay: Antimicrobial activity against Aspergillus niger; assay type: functional

{"COMPOUND": "CCOP1(=O)C(SC)=NN(CC)C12C(=O)c1ccccc1C2=O (stereo not drawn)", "MEASUREMENT TARGET": "Aspergillus niger", "UNITS LABEL": "mm", "Diameter of inhibition zone": 8}
{"COMPOUND": "CCOP(=O)(OCC)C1=NN(CC)C2(C1)C(=O)c1ccccc1C2=O", "MEASUREMENT TARGET": "Aspergillus niger", "UNITS LABEL": "mm", "Diameter of inhibition zone": 4.3}
{"COMPOUND": "CCOP1(=O)C(C#N)=NN(CC)C12C(=O)c1ccccc1C2=O (stereo not drawn)", "MEASUREMENT TARGET": "Aspergillus niger", "UNITS LABEL": "mm", "Diameter of inhibition zone": 9}
{"COMPOUND": "CCOP(=O)(OCC)C1=C(N)C2(N=N1)C(=O)c1ccccc1C2=O", "MEASUREMENT TARGET": "Aspergillus niger", "UNITS LABEL": "mm", "Diameter of inhibition zone": 5.4}
{"COMPOUND": "CCn1nc(SC)oc2c3ccccc3c(=O)c1=2", "MEASUREMENT TARGET": "Aspergillus niger", "UNITS LABEL": "mm", "Diameter of inhibition zone": 4.9}
{"COMPOUND": "CCOP(=O)(OCC)C1=NN(CC)C2(C1=O)C(=O)c1ccccc1C2=O", "MEASUREMENT TARGET": "Aspergillus niger", "UNITS LABEL": "mm", "Diameter of inhibition zone": 6.1}
{"COMPOUND": "CCOP1(=O)C(C(=O)OC)=NN(CC)C12C(=O)c1ccccc1C2=O (stereo not drawn)", "MEASUREMENT TARGET": "Aspergillus niger", "UNITS LABEL": "mm", "Diameter of inhibition zone": 8.4}
{"COMPOUND": "CCOC(=O)C1=NN(CC)C2(C(=O)c3ccccc3C2=O)P1(=O)OCC (stereo not drawn)", "MEASUREMENT TARGET": "Aspergillus niger", "UNITS LABEL": "mm", "Diameter of inhibition zone": 7.4}

###

system: Agrobacterium tumefaciens; test: Antimicrobial activity against Bacillus tumefaciens assessed as activity index; type: functional

{"COMPOUND": "CCOP1(=O)C(C(=O)OC)=NN(CC)C12C(=O)c1ccccc1C2=O (stereo not drawn)", "Activity": 0.9}
{"COMPOUND": "CCOC(=O)C1=NN(CC)C2(C(=O)c3ccccc3C2=O)P1(=O)OCC (stereo not drawn)", "Activity": 0.78}
{"COMPOUND": "CCOP1(=O)C(C#N)=NN(CC)C12C(=O)c1ccccc1C2=O (stereo not drawn)", "Activity": 0.89}
{"COMPOUND": "CCOP(=O)(OCC)C1=NN(CC)C2(C1)C(=O)c1ccccc1C2=O", "Activity": 0.84}
{"COMPOUND": "CCOP(=O)(OCC)C1=NN(CC)C2(C1=O)C(=O)c1ccccc1C2=O", "Activity": 0.57}
{"COMPOUND": "CCn1nc(SC)oc2c3ccccc3c(=O)c1=2", "Activity": 0.55}
{"COMPOUND": "CCOP1(=O)C(SC)=NN(CC)C12C(=O)c1ccccc1C2=O (stereo not drawn)", "Activity": 0.92}
{"COMPOUND": "CCOP(=O)(OCC)C1=C(N)C2(N=N1)C(=O)c1ccccc1C2=O", "Activity": 0.75}

Entry source: ChEMBL document CHEMBL1153858
